Origin of values: PubChem BioAssay

Experiment: blockers of RIG-like receptor reporter activation – cell-based, Sendai virus stimulus, luciferase, 10K MLSCN set, TLR/RLR signaling modifier project, primary screen (AID 602276);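 also: firefly luciferase from ISG56 promoter only with Renilla not read in this screen; 0% = Sendai virus plus DMSO and 100% = medium plus DMSO without virus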
Conditions: HEK293 RL24 IRF3 luciferase reporter, at 10 µM, hits give high values

compound	quantityUnit	inhibition
COC(=O)c1ccc(CNC(=O)COc2ccccc2Br)o1	%	5.53
COc1cc2[nH]c(=O)n(CCC(=O)N3CCc4ccccc4C3)c(=O)c2cc1OC	%	14.4
Cc1cc(S(=O)(=O)N(Cc2ccccc2)Cc2ccc(N(C)C)cc2)ccc1-n1cnnn1	%	15.7
C=CCn1cc(C(=O)NCCOC)c(=O)c2cc(S(=O)(=O)N(CC)CC)ccc21	%	7.34
CCOC(=O)C1=C(CC)Nc2ccccc2N=C1NC(=O)Cn1cnc2ccccc2c1=O	%	10.4
COc1ccc(S(=O)(=O)Cc2ccc(C(=O)N3CCN(Cc4ccccc4)CC3)o2)cc1	%	-3.69
COc1cccc(C2=NOC(C(=O)Nc3cc(C)nn3-c3ccccc3)C2)c1OC (configuration not stated)	%	16.2
CC(C)[C@H](NC(=O)NCc1ccc(Cl)cc1)C(=O)O	%	13
CC1CCCC(NC(=O)CSc2ncccc2C(=O)O)C1C (configuration not stated)	%	13.9
O=C(CN1CCN(c2nc(-c3ccccc3)cs2)CC1)Nc1ccc2c(c1)OCO2	%	-2.24
O=C(NCCc1ccccc1)C1CCCN(S(=O)(=O)c2cccs2)C1 (configuration not stated)	%	10.2
Cc1cc(Cl)c(S(=O)(=O)N2CCN(c3ccc(F)cc3)CC2)cc1OCC(N)=O	%	19.6
Cc1ccc2[nH]c(=O)c(C(c3nnnn3CCc3ccccc3)N3CCOCC3)cc2c1 (configuration not stated)	%	0.935
O=C(c1ccccc1)c1ccc(N2CCNCC2)cc1	%	-41.5
C=CCn1cnc2c(NCc3ccccc3)ncnc21	%	-54.3
COCCn1c(C)c(C(=O)O)sc1=S	%	9.55
O=C(CN(Cc1ccco1)C(=O)c1cc(=O)[nH]c2ccccc12)Nc1ccccc1Br	%	16
